- Test system: acetylcholinesterase
- Type: biochemical
- Conditions Used: 100 µM, after 60 min, in comparison to medium control, n=4
Rule: yes (1) for inhibition (%) not less than 10%, no (0) for anything less.

>>> print(df.to_string())
                                   molecule         tested_system  assigned_label
0  C=C(CO)[C@H]1Oc2ccc(C(C)=O)cc2[C@H]1O[C@@H]1O[C@H](CO)[C@@H](O)[C@H](O)[C@H]1O (relative stereo)  acetylcholinesterase          no (0)
1  C=C(C)C1COc2cc3oc(=O)ccc3c(OC)c2O1 (stereo not shown)  acetylcholinesterase          no (0)
2  C/C=C(/C)C(=O)OC[C@H]1[C@@H](Cc2ccc(OC)c(OC)c2)CO[C@@H]1c1ccc(OC)c(OC)c1  acetylcholinesterase         yes (1)
3  CC1=C[C@@H]2[C@@H](CC1)[C@@](C)(O)CC[C@H]2C(C)C  acetylcholinesterase         yes (1)
4  CC(=O)OCC1=C[C@]2(C)CCC3[C@H](C)CCC32C1C (relative stereo)  acetylcholinesterase         yes (1)
5  C[C@@H]1CC[C@@H]2C(C)(C)C[C@]3(C)CC=C[C@]123  acetylcholinesterase          no (0)
6  C=C(C)C1COc2cc3oc(=O)ccc3c(O)c2O1 (stereo not shown) [5-hydroxy-obliquin]  acetylcholinesterase          no (0)
7  C/C=C(/C)C(=O)OC[C@H]1[C@@H](Cc2ccc(OC)c(OC)c2)CO[C@@H]1c1cc(OC)c(OC)c(OC)c1  acetylcholinesterase          no (0)
8  C=C(C)C1COc2cc3oc(=O)ccc3cc2O1 (stereo not shown)  acetylcholinesterase         yes (1)
9  C/C=C(/C)C(=O)OC[C@H]1[C@@H](Cc2cc(OC)c(OC)c(OC)c2)CO[C@@H]1c1cc(OC)c(OC)c(OC)c1  acetylcholinesterase          no (0)
